Origin of the recorded values: patent US20220249599A1

substances and their reported MIC
Test system: Acinetobacter baumannii ATCC BAA-1797 (MDR)
Assay: microbe, parasite or virus in culture
Type: cell-based
Conditions: ATCC BAA-1797
Protocol: Each peptide was formulated in PBS buffer prior to testing. Peptides of SEQ ID NO:5 and SEQ ID NO:8 were brought up in 100% DMSO with 0.002% polysorbate-80 at 1.28 mg/mL (40× the highest final test concentration of 32 mcg/mL). Final test concentration of DMSO was 2.5% in the assay at the first dilution for those two compounds. […] MIC values were determined using a broth microdilution procedure described by CLSI (1, 3). […]
Ends that are not written are not given here.
measurement_type: MIC (µg/mL)

substance: VVRVVRRVVRVVRR [SEQ ID NO: 7]
measurement_unit: µg/mL
inequality_sign: >
result_value: 32
--
substance: IRRRRRRIRRRRRR [SEQ ID NO: 2]
measurement_unit: µg/mL
inequality_sign: >
result_value: 32
--
substance: IRRRIRRIRRRIRRIRRRIRR [SEQ ID NO: 3]
measurement_unit: µg/mL
inequality_sign: =
result_value: 16
--
substance: IRRIIRRIRRIIRRIRRIIRR [SEQ ID NO: 4]
measurement_unit: µg/mL
inequality_sign: =
result_value: 8
--
substance: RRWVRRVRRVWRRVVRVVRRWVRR-NH2 (C-terminus assumed) [SEQ ID NO: 1]
measurement_unit: µg/mL
inequality_sign: =
result_value: 4
--
substance: VVRVVRVVVRVVRVVVRVVRV [SEQ ID NO: 8]
measurement_unit: µg/mL
inequality_sign: >
result_value: 32
--
substance: VWRWVRRVWRWVRR [SEQ ID NO: 6]
measurement_unit: µg/mL
inequality_sign: =
result_value: 0.5
--
substance: VWRWVRRVWRWVRRVWRWVRR [SEQ ID NO: 5]
measurement_unit: µg/mL
inequality_sign: =
result_value: 32
